Biological target: Serine/threonine-protein kinase 3 (Homo sapiens)
Sequence (whole entry): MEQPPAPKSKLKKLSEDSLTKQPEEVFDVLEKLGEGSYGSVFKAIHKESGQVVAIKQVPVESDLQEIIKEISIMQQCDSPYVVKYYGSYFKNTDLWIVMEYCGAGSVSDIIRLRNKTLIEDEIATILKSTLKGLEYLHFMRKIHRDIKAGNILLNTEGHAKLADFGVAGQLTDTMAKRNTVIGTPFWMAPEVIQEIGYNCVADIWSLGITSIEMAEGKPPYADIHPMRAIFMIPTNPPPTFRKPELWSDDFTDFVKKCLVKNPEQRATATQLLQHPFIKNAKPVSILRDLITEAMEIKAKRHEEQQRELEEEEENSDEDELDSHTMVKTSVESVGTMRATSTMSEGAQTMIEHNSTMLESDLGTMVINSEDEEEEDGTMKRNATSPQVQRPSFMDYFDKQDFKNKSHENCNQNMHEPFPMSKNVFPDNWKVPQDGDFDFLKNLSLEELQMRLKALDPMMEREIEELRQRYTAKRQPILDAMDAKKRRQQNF
Assay: Binding affinity to recombinant MST2 (unknown origin) assessed as stabilization by measuring change in melting temperature at 10 uM by SYPRO orange dye based differential scanning fluorimetry assay
experimentalEndpoint: ΔTm (°C)

Completed entries (count: 5):
[[record]]
chemicalsmiles = "CNc1ncc2cc(-c3cc(C(F)(F)F)ccc3Cl)c(=O)n(CCCCN)c2n1"
reading = 0.8

[[record]]
chemicalsmiles = "CNc1ncc2cc(-c3cc(Cl)ccc3Cl)c(=O)n(CCCCN)c2n1"
reading = 1.4

[[record]]
chemicalsmiles = "CNc1ncc2cc(-c3ccccc3Cl)c(=O)n(CCCCN)c2n1"
reading = 2.2

[[record]]
chemicalsmiles = "CNc1ncc2cc(-c3cc(F)c(-c4cccc(C)n4)cc3F)c(=O)n(CCCCN)c2n1"
reading = 5.2

[[record]]
chemicalsmiles = "CNc1ncc2cc(-c3cc(Cl)ccc3Br)c(=O)n(CCCCN)c2n1"
reading = 1.4


P. CNc1ncc2cc(-c3cc(Br)ccc3Br)c(=O)n(CCCCN)c2n1
Q. CNc1ncc2cc(-c3cc(Br)ccc3Cl)c(=O)n(CCCCN)c2n1
Ask | Hello, I am sorting some records. Could you say if P or Q has the smaller ΔTm value? Please identify the chosen entry by its label.
Reply | P
(P: 1.4 °C, Q: 2.5 °C)

P. CNc1ncc2cc(-c3cc(F)ccc3F)c(=O)n(CCCCN)c2n1
Q. CNc1ncc2cc(-c3cc(Br)ccc3Cl)c(=O)n(C[C@H]3OC[C@H](N)CO3)c2n1
Ask | Smaller ΔTm value? Options are P and Q Refer to your chosen item by its label in the answer.
Reply | P
(P: 0.6 °C, Q: 1.5 °C)

###

target: Serine/threonine-protein kinase 4 (Homo sapiens) (UniProt Q13043); test: Binding affinity to recombinant MST1 (unknown origin) assessed as stabilization by measuring change in melting temperature at 10 uM by SYPRO orange dye based differential scanning fluorimetry assay
Sequence (Q13043 whole entry): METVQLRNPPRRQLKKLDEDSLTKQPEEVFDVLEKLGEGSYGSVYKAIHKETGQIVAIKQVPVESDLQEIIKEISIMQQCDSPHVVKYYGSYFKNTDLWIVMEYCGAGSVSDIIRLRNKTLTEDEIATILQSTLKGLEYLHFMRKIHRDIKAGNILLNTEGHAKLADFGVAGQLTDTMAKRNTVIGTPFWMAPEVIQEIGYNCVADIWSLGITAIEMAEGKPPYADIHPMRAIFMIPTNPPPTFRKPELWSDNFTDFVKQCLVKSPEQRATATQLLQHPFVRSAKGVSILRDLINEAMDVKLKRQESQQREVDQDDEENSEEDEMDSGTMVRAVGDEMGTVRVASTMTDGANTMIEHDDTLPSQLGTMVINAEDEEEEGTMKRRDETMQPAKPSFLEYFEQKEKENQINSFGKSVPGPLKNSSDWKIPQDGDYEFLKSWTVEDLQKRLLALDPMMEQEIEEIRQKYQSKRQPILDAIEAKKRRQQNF
experimentalEndpoint: ΔTm (°C)

[[record]]
chemicalsmiles = "CNc1ncc2cc(-c3cc(Br)ccc3Cl)c(=O)n(C[C@H]3OC[C@H](N)CO3)c2n1"
experimentalendpoint = "ΔTm"
scaleunit = "°C"
reading = 1.7

[[record]]
chemicalsmiles = "CNc1ncc2cc(-c3cc(Cl)ccc3Cl)c(=O)n(CCCCN)c2n1"
experimentalendpoint = "ΔTm"
scaleunit = "°C"
reading = 1.6

[[record]]
chemicalsmiles = "CNc1ncc2cc(-c3cc(Cl)ccc3Br)c(=O)n(CCCCN)c2n1"
experimentalendpoint = "ΔTm"
scaleunit = "°C"
reading = 1.5

[[record]]
chemicalsmiles = "CNc1ncc2cc(-c3cc(Br)ccc3Cl)c(=O)n(CCCCN)c2n1"
experimentalendpoint = "ΔTm"
scaleunit = "°C"
reading = 1.9

[[record]]
chemicalsmiles = "CNc1ncc2cc(-c3ccc(-c4ncccc4F)cc3Cl)c(=O)n(C[C@H]3OC[C@H](N)CO3)c2n1"
experimentalendpoint = "ΔTm"
scaleunit = "°C"
reading = 1.8


###

biological target: Mitogen-activated protein kinase 8 (Homo sapiens, UniProt P45983); assay: Inhibition of full length NanoLuc fused JNK1 (unknown origin) transfected in HEK293T cells using NanoBRET NanoGlo substrate incubated for 2 hrs in presence of tracer by NanoBRET assay
Sequence (P45983 whole entry, the tested form may be a part): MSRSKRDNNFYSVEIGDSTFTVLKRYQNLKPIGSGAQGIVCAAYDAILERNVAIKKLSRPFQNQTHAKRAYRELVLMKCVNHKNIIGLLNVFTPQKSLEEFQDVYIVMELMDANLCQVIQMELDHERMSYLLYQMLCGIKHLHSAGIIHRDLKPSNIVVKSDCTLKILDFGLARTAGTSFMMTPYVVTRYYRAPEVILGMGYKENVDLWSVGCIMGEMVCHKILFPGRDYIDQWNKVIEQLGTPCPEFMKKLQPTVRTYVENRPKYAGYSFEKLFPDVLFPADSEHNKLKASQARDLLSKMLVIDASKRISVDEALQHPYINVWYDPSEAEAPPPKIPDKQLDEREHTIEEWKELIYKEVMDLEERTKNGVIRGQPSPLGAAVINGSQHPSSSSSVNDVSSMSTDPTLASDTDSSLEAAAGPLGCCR
experimentalEndpoint: pIC50
pIC50 here is simply -log10 of the concentration when that concentration is written in mol/L.

Ask | Kindly state the measured pIC50 obtained for CNc1ncc2cc(-c3cc(F)ccc3F)c(=O)n(CCCCN)c2n1 with Mitogen-activated protein kinase 8 (Homo sapiens, UniProt P45983).
Reply | 4.63

###

molecular target: Ephrin type-A receptor 2 (Homo sapiens); assay: Inhibition of full length NanoLuc fused EPHA2 (unknown origin) transfected in HEK293T cells using NanoBRET NanoGlo substrate incubated for 2 hrs in presence of tracer by NanoBRET assay; assay type: cell-based
Sequence (P29317 whole entry, the tested form may be a part): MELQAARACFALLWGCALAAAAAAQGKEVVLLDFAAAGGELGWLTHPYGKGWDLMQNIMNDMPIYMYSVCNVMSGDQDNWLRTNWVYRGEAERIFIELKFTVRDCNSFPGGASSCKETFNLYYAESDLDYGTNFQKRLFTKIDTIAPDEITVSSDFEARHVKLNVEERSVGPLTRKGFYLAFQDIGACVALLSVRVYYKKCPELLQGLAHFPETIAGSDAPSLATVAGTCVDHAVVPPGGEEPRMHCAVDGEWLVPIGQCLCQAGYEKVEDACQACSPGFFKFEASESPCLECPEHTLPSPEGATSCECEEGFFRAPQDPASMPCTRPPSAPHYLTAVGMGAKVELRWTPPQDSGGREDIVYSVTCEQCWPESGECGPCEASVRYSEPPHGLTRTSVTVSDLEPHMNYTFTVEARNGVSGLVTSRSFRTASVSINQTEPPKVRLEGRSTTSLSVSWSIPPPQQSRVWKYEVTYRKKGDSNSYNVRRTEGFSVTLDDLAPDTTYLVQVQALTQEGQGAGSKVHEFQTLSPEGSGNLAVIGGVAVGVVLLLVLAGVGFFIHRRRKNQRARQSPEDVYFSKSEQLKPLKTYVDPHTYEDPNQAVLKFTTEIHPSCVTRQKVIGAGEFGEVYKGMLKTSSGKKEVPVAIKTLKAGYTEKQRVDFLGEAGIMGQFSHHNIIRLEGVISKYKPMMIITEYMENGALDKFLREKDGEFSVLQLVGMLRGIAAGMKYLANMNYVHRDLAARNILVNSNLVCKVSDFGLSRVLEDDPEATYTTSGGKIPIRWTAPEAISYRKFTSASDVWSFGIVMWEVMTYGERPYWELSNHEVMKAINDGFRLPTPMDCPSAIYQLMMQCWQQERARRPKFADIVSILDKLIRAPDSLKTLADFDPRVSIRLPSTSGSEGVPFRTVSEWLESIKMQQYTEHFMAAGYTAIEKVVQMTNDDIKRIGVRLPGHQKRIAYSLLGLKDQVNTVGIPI
experimentalEndpoint: pIC50
Give only the number. pIC50 is defined as minus log10 of concentration in molar units.

Ask | Record request: pIC50 value, item CNc1ncc2cc(-c3cc(F)ccc3F)c(=O)n(CCCCN)c2n1
Reply | 5.68

###

biological target: Serine/threonine-protein kinase SIK1 (Homo sapiens); experiment: Inhibition of full length NanoLuc fused SIK1 (unknown origin) transfected in HEK293T cells using NanoBRET NanoGlo substrate incubated for 2 hrs in presence of tracer by NanoBRET assay
Sequence (P57059 whole entry, the tested form may be a part): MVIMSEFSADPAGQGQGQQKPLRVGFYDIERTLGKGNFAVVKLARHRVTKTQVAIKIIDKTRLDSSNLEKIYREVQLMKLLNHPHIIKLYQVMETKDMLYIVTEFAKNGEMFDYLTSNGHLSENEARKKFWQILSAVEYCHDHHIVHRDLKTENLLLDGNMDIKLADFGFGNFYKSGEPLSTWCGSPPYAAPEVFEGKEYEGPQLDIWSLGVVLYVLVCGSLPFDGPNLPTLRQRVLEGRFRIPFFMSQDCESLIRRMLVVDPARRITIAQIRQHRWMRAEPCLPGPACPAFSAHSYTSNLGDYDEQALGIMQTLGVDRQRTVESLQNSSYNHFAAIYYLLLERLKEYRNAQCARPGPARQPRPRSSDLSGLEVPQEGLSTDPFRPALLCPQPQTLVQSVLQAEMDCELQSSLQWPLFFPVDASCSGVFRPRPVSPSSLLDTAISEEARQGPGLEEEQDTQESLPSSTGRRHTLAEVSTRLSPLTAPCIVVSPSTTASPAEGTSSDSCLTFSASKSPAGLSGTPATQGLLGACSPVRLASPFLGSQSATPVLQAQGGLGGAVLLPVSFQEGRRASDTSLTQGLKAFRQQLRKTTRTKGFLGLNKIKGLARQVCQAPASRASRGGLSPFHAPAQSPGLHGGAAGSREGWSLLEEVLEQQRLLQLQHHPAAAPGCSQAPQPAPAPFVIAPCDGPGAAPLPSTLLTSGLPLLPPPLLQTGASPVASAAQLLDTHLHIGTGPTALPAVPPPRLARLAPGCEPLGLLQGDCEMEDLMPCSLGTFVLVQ
experimentalEndpoint: IC50 (µM)
Kindly provide the numeric value in µM only, without the unit symbol.

Ask | Can you look up the measured IC50 of CNc1ncc2cc(-c3ccc(-c4cccc(C)n4)cc3Cl)c(=O)n(C[C@H]3OC[C@H](N)CO3)c2n1 for me?
Reply | 0.033

###

target: Serine/threonine-protein kinase 24 (Homo sapiens); assay: Binding affinity to recombinant MST3 (unknown origin) assessed as stabilization by measuring change in melting temperature at 10 uM by SYPRO orange dye based differential scanning fluorimetry assay
experimentalEndpoint: ΔTm (°C)

[[record]]
chemicalsmiles = "CNc1ncc2cc(-c3cc(Br)ccc3Cl)c(=O)n(CCCCN)c2n1"
assaysystem = "Serine/threonine-protein kinase 24 (Homo sapiens)"
reading = 2.7

[[record]]
chemicalsmiles = "CNc1ncc2cc(-c3ccc(-c4ncccc4F)cc3Cl)c(=O)n(C[C@H]3OC[C@H](N)CO3)c2n1"
assaysystem = "Serine/threonine-protein kinase 24 (Homo sapiens)"
reading = 3.5

[[record]]
chemicalsmiles = "CNc1ncc2cc(-c3cc(C(F)(F)F)ccc3Cl)c(=O)n(CCCCN)c2n1"
assaysystem = "Serine/threonine-protein kinase 24 (Homo sapiens)"
reading = 0.2

[[record]]
chemicalsmiles = "CNc1ncc2cc(-c3cc(F)ccc3F)c(=O)n(CCCCN)c2n1"
assaysystem = "Serine/threonine-protein kinase 24 (Homo sapiens)"
reading = 1.5

[[record]]
chemicalsmiles = "CNc1ncc2cc(-c3cc(Br)ccc3Br)c(=O)n(CCCCN)c2n1"
assaysystem = "Serine/threonine-protein kinase 24 (Homo sapiens)"
reading = 1.9

[[record]]
chemicalsmiles = "CNc1ncc2cc(-c3cc(Cl)ccc3Cl)c(=O)n(CCCCN)c2n1"
assaysystem = "Serine/threonine-protein kinase 24 (Homo sapiens)"
reading = 1.9

[[record]]
chemicalsmiles = "CNc1ncc2cc(-c3cc(F)c(-c4cccc(C)n4)cc3F)c(=O)n(CCCCN)c2n1"
assaysystem = "Serine/threonine-protein kinase 24 (Homo sapiens)"
reading = 9.7


1. CNc1ncc2cc(-c3cc(Br)ccc3Cl)c(=O)n(C[C@H]3OC[C@H](N)CO3)c2n1
2. CNc1ncc2cc(-c3ccc(-c4cccc(C)n4)cc3Cl)c(=O)n(C[C@H]3OC[C@H](N)CO3)c2n1
3. CNc1ncc2cc(-c3cc(Cl)ccc3Br)c(=O)n(CCCCN)c2n1
4. CNc1ncc2cc(-c3ccccc3Cl)c(=O)n(CCCCN)c2n1
Ask | Sort the 4 compounds by ΔTm; largest first, smallest last. Order the labels as requested and list them.
Reply | 2, 4, 3, 1
(2: 8.5 °C, 4: 3.8 °C, 3: 2 °C, 1: 0.8 °C)

###

molecular target: Tyrosine-protein kinase ABL1 (Homo sapiens); test: Inhibition of full length NanoLuc fused ABL1 (unknown origin) transfected in HEK293T cells using NanoBRET NanoGlo substrate incubated for 2 hrs in presence of tracer by NanoBRET assay
Sequence (P00519 whole entry, the tested form may be a part): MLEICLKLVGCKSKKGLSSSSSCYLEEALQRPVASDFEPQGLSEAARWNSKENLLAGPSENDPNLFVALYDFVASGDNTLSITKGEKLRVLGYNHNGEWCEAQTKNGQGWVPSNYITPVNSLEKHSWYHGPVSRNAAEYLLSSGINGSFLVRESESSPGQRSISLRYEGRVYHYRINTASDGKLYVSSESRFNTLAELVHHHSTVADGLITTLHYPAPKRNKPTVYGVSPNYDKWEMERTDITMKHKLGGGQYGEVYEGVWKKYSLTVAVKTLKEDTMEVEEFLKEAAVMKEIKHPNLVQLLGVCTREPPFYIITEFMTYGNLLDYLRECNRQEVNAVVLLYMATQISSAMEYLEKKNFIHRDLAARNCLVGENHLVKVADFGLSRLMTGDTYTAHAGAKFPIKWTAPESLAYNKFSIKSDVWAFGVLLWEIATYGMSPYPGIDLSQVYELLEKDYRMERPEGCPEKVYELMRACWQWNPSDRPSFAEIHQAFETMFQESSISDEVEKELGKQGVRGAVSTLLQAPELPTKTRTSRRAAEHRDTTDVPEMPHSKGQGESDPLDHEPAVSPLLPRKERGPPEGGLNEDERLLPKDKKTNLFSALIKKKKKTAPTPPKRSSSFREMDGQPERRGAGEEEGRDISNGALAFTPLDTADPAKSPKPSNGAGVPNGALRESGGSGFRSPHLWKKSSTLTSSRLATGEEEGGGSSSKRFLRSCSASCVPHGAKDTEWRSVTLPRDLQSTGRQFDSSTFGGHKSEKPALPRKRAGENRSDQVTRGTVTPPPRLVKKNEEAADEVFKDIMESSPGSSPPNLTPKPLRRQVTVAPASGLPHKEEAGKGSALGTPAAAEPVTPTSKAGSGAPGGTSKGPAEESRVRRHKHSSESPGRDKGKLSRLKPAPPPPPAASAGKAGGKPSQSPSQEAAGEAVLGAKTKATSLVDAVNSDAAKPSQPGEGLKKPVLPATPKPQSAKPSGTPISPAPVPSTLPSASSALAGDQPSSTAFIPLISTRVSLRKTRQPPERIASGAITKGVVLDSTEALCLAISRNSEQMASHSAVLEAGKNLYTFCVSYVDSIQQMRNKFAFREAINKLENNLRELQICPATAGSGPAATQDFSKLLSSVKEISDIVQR
experimentalEndpoint: IC50 (µM)
Report the value in µM with no unit label.

Ask | What measured IC50 is associated with CNc1ncc2cc(-c3cc(F)ccc3F)c(=O)n(CCCCN)c2n1 on Tyrosine-protein kinase ABL1 (Homo sapiens)?
Reply | 28.1

###

molecular target: Cyclin-G-associated kinase (Homo sapiens); assay: Inhibition of full length NanoLuc fused GAK (unknown origin) transfected in HEK293T cells using NanoBRET NanoGlo substrate incubated for 2 hrs in presence of tracer by NanoBRET assay
experimentalEndpoint: IC50 (µM)
Form entry: value (µM) — number only.

Ask | Data request, read-out IC50, for CNc1ncc2cc(-c3cc(F)ccc3F)c(=O)n(CCCCN)c2n1
Reply | 33.8

###

target: Serine/threonine-protein kinase 4 (Homo sapiens); assay: Binding affinity to recombinant MST1 (unknown origin) assessed as stabilization by measuring change in melting temperature at 10 uM by SYPRO orange dye based differential scanning fluorimetry assay
experimentalEndpoint: ΔTm (°C)

1. CNc1ncc2cc(-c3ccc(-c4cccc(C)n4)cc3Cl)c(=O)n(C[C@H]3OC[C@H](N)CO3)c2n1
2. CNc1ncc2cc(-c3cc(F)c(-c4cccc(C)n4)cc3F)c(=O)n(CCCCN)c2n1
3. CNc1ncc2cc(-c3cc(F)ccc3F)c(=O)n(CCCCN)c2n1
Ask | Descending sort on ΔTm required. A ranking is expressed here by listing the labels in the requested order.
Reply | 1, 2, 3
(1: 4.2 °C, 2: 2.8 °C, 3: 0.9 °C)
